Target: UniProtKB Q04912
Sequence (Q04912 25-1400): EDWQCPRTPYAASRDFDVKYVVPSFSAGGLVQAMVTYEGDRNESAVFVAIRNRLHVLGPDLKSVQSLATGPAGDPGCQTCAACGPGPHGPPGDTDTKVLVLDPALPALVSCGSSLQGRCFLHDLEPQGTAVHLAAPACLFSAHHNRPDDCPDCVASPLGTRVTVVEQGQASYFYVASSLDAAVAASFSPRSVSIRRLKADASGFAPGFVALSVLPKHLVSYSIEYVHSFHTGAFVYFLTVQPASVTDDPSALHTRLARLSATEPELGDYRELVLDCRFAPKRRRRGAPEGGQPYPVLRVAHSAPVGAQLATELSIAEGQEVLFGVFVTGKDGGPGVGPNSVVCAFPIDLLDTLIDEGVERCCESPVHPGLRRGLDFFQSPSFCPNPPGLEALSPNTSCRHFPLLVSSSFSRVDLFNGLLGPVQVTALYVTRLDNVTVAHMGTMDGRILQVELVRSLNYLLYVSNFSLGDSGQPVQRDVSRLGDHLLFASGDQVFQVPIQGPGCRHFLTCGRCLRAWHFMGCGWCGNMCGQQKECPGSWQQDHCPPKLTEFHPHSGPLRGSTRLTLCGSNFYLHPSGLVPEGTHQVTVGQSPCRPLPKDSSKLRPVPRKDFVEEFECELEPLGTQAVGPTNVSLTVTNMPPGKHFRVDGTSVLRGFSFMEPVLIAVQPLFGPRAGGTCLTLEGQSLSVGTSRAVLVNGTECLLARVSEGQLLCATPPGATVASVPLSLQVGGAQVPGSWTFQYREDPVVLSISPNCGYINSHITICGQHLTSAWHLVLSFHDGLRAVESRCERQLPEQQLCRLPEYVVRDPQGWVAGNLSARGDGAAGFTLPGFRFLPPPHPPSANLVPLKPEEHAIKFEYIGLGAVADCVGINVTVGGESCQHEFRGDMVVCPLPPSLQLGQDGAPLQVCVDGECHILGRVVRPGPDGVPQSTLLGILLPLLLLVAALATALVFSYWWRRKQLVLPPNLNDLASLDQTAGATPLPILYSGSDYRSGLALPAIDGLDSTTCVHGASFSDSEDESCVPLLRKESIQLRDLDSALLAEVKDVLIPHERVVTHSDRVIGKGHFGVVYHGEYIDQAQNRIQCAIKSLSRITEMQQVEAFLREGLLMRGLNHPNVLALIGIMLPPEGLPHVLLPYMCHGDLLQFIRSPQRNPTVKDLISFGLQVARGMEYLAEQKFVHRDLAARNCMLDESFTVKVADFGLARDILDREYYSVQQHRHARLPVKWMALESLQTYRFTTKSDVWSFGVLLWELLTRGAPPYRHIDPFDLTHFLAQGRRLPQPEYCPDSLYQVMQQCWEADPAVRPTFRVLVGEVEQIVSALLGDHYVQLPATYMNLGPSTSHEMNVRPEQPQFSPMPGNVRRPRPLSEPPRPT
MEASURED METRIC: pIC50
// scale note: pIC50 = -log10(conc_M); give the bare number

## Input Fill in the blank: the reported pIC50 of CNC(=O)c1cc2c(Oc3ccc(NC(=O)C4(C(=O)Nc5ccc(F)cc5)CC4)cc3)ccnc2cc1OC [Zanzalintinib, reference compound] is ____.
## Output 6.87

// moving on: another record for pIC50
## Input Fill in the blank: the reported pIC50 of COc1cc2nccc(Oc3ccc(NC(=O)C4(C(=O)Nc5ccc(F)cc5)CC4)cc3F)c2cc1Oc1ccc(N)cc1F [Cbo-23] is ____.
## Output 7.29
